Kindly state melting point for each of the entries shown.

• COc1cc(OC)nc(Oc2ccc(NC(=S)c3cc([N+](=O)[O-])ccc3Cl)cc2)n1 [Compound No. 19] = 220 to 222 °C
• O=[N+]([O-])c1ccc(Cl)c(C(=S)NCCCOc2cc(C(F)(F)F)cc(N3CCSCC3)n2)c1 [Compound No. 4] = 132 to 133 °C
• O=[N+]([O-])c1ccc(Cl)c(C(=S)Nc2ccc(Oc3cc(C(F)(F)F)cc(Cl)n3)cc2)c1 [Compound No. 2] = 186 to 187 °C
• O=[N+]([O-])c1ccc(Cl)c(C(=S)Nc2ccc(Nc3ncc(C(F)(F)F)cc3Cl)cc2)c1 [Compound No. 6] = 199 to 200 °C
• O=[N+]([O-])c1ccc(Cl)c(C(=S)Nc2ccc(Oc3ncc(C(F)(F)F)cc3Cl)cc2F)c1 [Compound No. 11] = 193 °C
• O=[N+]([O-])c1ccc(Cl)c(C(=S)Nc2ccc(Sc3cc(C(F)(F)F)cc(Cl)n3)cc2)c1 [Compound No. 7] = 183 to 186 °C
• O=[N+]([O-])c1ccc(Cl)c(C(=S)Nc2ccc(Oc3ncc(C(F)(F)F)cc3Cl)cc2)c1 [Compound No. 1] = 186 to 187 °C
• O=[N+]([O-])c1ccc(Cl)c(C(=S)Nc2ccc(Sc3ncc(C(F)(F)F)cc3Cl)cc2)c1 [Compound No. 5] = 72 to 73 °C
• N#Cc1ccc(Cl)c(C(=S)Nc2ccc(Oc3ncc(C(F)(F)F)cc3Cl)c(-n3cccc3)c2)c1 [Compound No. 17] = 229 to 230 °C
• O=[N+]([O-])c1ccc(F)c(C(=S)Nc2ccc(Oc3ncc(C(F)(F)F)cc3Cl)cc2F)c1 [Compound No. 12] = 146 to 147 °C

Value sought for every listed compound: melting point.
1. FC(F)(F)c1cnc(Oc2ccc(NC(=S)c3cnc(Cl)cc3Cl)cc2)c(Cl)c1 [Compound No. 13]
2. COc1cc(OC)nc(OCCCNC(=S)c2cc([N+](=O)[O-])ccc2Cl)n1 [Compound No. 18]
3. CN(C)c1cc(C(F)(F)F)cc(OCCCNC(=S)c2cc([N+](=O)[O-])ccc2Cl)n1 [Compound No. 8]
4. CN(C)c1cc(C(F)(F)F)cc(OCCCNC(=S)c2cc([N+](=O)[O-])ccc2F)n1 [Compound No. 16]

175 to 176 °C
119 to 120 °C
102 to 103 °C
130 to 133 °C
